# Test system: NCI-H1355
# measurementNotes: relative viability (nuclei count vs DMSO), 5 days (fraction); higher = more cells survive
# measurementConditions: first compound 1.265 µM
measurementKind: relative viability

[[record]]
molecule = "O=C(O)c1ccc(-c2c[nH]c3ncc(-c4ccccc4)cc23)cc1C1CCCC1 + COc1cccc2cc(-c3nc([C@H]4CC[C@H](C(=O)O)CC4)n4ncnc(N)c34)[nH]c12 [OSI-027] (partner 0.5 µM)"
subjectoftest = "NCI-H1355"
measurementkind = "relative viability"
experimentalresult = 0.379

[[record]]
molecule = "O=C(O)c1ccc(-c2c[nH]c3ncc(-c4ccccc4)cc23)cc1C1CCCC1 + Cc1nc(Nc2ncc(C(=O)Nc3c(C)cccc3Cl)s2)cc(N2CCN(CCO)CC2)n1 [Dasatinib] (partner 0.075 µM)"
subjectoftest = "NCI-H1355"
measurementkind = "relative viability"
experimentalresult = 0.567

[[record]]
molecule = "O=C(O)c1ccc(-c2c[nH]c3ncc(-c4ccccc4)cc23)cc1C1CCCC1 + O=C(c1cc(Cc2n[nH]c(=O)c3ccccc23)ccc1F)N1CCN(C(=O)C2CC2)CC1 [Olaparib] (partner 8 µM)"
subjectoftest = "NCI-H1355"
measurementkind = "relative viability"
experimentalresult = 0.323

